What Total Response per epitope was measured for each of the following?
system: PBMC of healthy adult blood donors from Colombo, Sri Lanka; test: Ex vivo IFNγ ELISPOT, HLA-matched PBMC of Sri Lankan blood donors; type: cell-based, human; parameters: unit not given here; conditions: total over responding donors; restricting HLA allele and serotype as given

Recorded Total Response per epitope for CSCC[C@H](NC(=O)[C@@H](NC(=O)[C@@H](N)Cc1ccccc1)[C@@H](C)O)C(=O)N[C@@H](CCCNC(=N)N)C(=O)N[C@@H](Cc1c[nH]cn1)C(=O)N[C@@H](CCCCN)C(=O)N[C@@H](CCCCN)C(=O)N[C@@H](C)C(=O)N[C@H](C(=O)N[C@@H](Cc1ccc(O)cc1)C(=O)O)[C@@H](C)O , please?
1723.3

Which Total Response per epitope reading was recorded for the compound CC[C@H](C)[C@H](NC(=O)[C@@H](NC(=O)[C@H](Cc1ccccc1)NC(=O)CNC(=O)[C@@H]1CCCN1C(=O)[C@@H](N)Cc1c[nH]cn1)[C@@H](C)O)C(=O)N[C@@H](CC(C)C)C(=O)N[C@@H](C)C(=O)N[C@@H](CC(C)C)C(=O)N[C@@H](Cc1ccccc1)C(=O)O ?
3763.3

// Total Response per epitope lookup, key: CC(C)C[C@H](NC(=O)[C@@H](NC(=O)[C@H](Cc1c[nH]c2ccccc12)NC(=O)[C@H](C)NC(=O)[C@H](CO)NC(=O)[C@H](C)NC(=O)[C@@H]1CCCN1C(=O)[C@@H](N)Cc1c[nH]cn1)[C@@H](C)O)C(=O)N[C@@H](Cc1ccc(O)cc1)C(=O)O
281.7

Form field: reported Total Response per epitope of CC[C@H](C)[C@H](NC(=O)[C@@H]1CCCN1C(=O)[C@H](C)NC(=O)[C@H](CC(N)=O)NC(=O)[C@H](CO)NC(=O)[C@H](CCC(N)=O)NC(=O)[C@@H]1CCCN1C(=O)[C@@H](N)Cc1ccccc1)C(=O)N[C@@H](CCSC)C(=O)N[C@@H](CC(=O)O)C(=O)O
716.7

Request the reported Total Response per epitope associated with CC(C)[C@H](NC(=O)[C@H](C)NC(=O)[C@@H](N)CCC(=O)O)C(=O)N[C@@H](CCC(=O)O)C(=O)N[C@@H](CC(=O)O)C(=O)N[C@@H](CO)C(=O)N[C@@H](CCCNC(=N)N)C(=O)N[C@@H](Cc1ccccc1)C(=O)N[C@@H](Cc1c[nH]c2ccccc12)C(=O)N[C@@H](CCC(=O)O)C(=O)O
248.3

Look up Total Response per epitope: CC[C@H](C)[C@H](N)C(=O)N[C@H](C(=O)N[C@@H](CC(C)C)C(=O)N[C@@H](CC(C)C)C(=O)N[C@@H](CS)C(=O)N[C@@H](CC(C)C)C(=O)N[C@H](C(=O)N1CCC[C@H]1C(=O)N[C@H](C(=O)N[C@H](C(=O)O)C(C)C)[C@@H](C)O)[C@@H](C)CC)[C@@H](C)O
63.3

Endpoint output: Total Response per epitope of CC[C@H](C)[C@H](N)C(=O)N[C@@H](C)C(=O)N[C@H](C(=O)N[C@@H](CO)C(=O)N[C@@H](CCSC)C(=O)N[C@@H](C)C(=O)N[C@@H](CC(N)=O)C(=O)N[C@H](C(=O)N[C@@H](Cc1ccccc1)C(=O)O)[C@@H](C)CC)C(C)C . Value?
1966.7

Origin of values: patent US10308689B2
